# System: common purslane (Portulaca oleracea)
# ASSAY REMARKS: Pre-emergence application, herbicidal effect on common purslane (Table 1)
# Assay type: in vivo
# Parameters: key: 0: not damaged; 5: completely killed
# CONDITION INFO: 40 g./a., 20 days after application, score 0-5
OBSERVATION TYPE: Herbicidal effect, common purslane
One number for each entry.

{"MOLECULE": "CCCOP(=O)(SC)SCC(=O)N1CCCCC1C (stereo not drawn)", "OBSERVATION TYPE": "Herbicidal effect, common purslane", "NUMERIC READOUT": 5}
{"MOLECULE": "CCOP(=O)(SCC(=O)N1CCCCC1CC)SCc1ccc(CC)cc1 (stereo not drawn)", "OBSERVATION TYPE": "Herbicidal effect, common purslane", "NUMERIC READOUT": 5}

Dear colleague, could you please provide Herbicidal effect, common purslane for the molecules listed below?
1. CCCOP(=O)(SC)SCC(=O)N1CCCCC1CC (stereo not drawn)
2. CCCOP(=O)(SCC(=O)N1CCCCC1CC)SC(C)CC (stereo not drawn)

[5, 5]

Hi! Can you tell me Herbicidal effect, common purslane for each of these molecules?
1. CCOP(=O)(SCC(=O)N1CCCC(C)C1)SC(C)C (stereo not drawn)
2. CCCCCCSP(=O)(OCC)SCC(=O)N1CCCCC1C (stereo not drawn)
3. CCOP(=O)(SCC(=O)N1CCCCC1CC)SCC(C)C (stereo not drawn)
4. CCOP(=O)(SCC(=O)N1CCC(C)CC1)SC(C)C (stereo not drawn)
5. CCOP(=O)(SCC(=O)N1CCCCC1C)SC(C)CC (stereo not drawn)
6. CCCOP(=O)(SCCC)SCC(=O)N1CCCCC1CC (stereo not drawn)
7. CCCCOP(=O)(SCCC)SCC(=O)N1CCCCC1CC (stereo not drawn)
8. CCOP(=O)(SCCc1ccccc1)SCC(=O)N1CCCCC1C (stereo not drawn)

4
5
5
4
5
5
5
5

// each listed molecule needs a value for Herbicidal effect, common purslane
1. CCCCCSP(=O)(OCCC)SCC(=O)N1CCCCC1C (stereo not drawn)
2. CCOP(=O)(SCC)SCC(=O)N1CCCCC1CC (stereo not drawn)
3. CCCCCSP(=O)(OCCCC)SCC(=O)N1CCCCC1CC (stereo not drawn)
4. CCCOP(=O)(SCCC)SCC(=O)N1CCCCC1C (stereo not drawn)
5. CCOP(=O)(SCC(=O)N1CCCCC1C)SCc1ccccc1 (stereo not drawn)
6. CCCCOP(=O)(SCC(=O)N1CCCCC1CC)SCC(C)C (stereo not drawn)
7. CCOP(=O)(SCC(=O)N1CCCCC1C)SC1CCCCC1 (stereo not drawn)
8. CCOP(=O)(SC)SCC(=O)N1CCCCC1CC (stereo not drawn)

5
5
5
4
5
5
4
5
